Sourced from PubChem BioAssay (NCI)

Tested on: OVCAR-4 ovarian
Experiment: NCI-60 one-dose screen, 48 h
Conditions: 10 µM
The panel holds about 83,000 compounds, 20% with a hit somewhere; the sample as a whole holds those more often. Activity calls are given as the source filed them. Rule for the calls: active = growth percent below 10; inactive = the rest.
Pick one: t for active, f for inactive

See these solved cases before continuing.
>>> print(df.to_string())
                                   compound  label_class
0             CC(C)CCSC1=CC(=O)c2ccccc2C1=O            t
1  CCC(C)[C@H](NC(=O)NC(=O)NC(=O)CI)C(=O)OC (stereo partly specified)            f
2          c1ccc(-c2n[nH]c(-c3ccccn3)n2)nc1            f
3  O=C(O)CSCc1nnc2n(Cc3ccccc3)c(=O)c3c4c(sc3n12)CCCC4            f
4  CC/C=C(\C)C(CCC)(CN=O)C(=O)OCC (stereo unspecified)            f

We next turn to a different compound, shown below.
input: Record request — test call for `O=C(NCCCCCCCNC(=O)OCc1ccc2c(Cl)cc(Cl)c(O)c2n1)OCc1ccc2c(Cl)cc(Cl)c(O)c2n1`
output: t

----------
System: SF-268 CNS
Experiment: NCI-60 one-dose screen, 48 h
Details: 10 µM unless noted
The panel holds about 83,000 compounds, 20% with a hit somewhere; the sample as a whole holds those more often. The source made the active and inactive calls. Rule for the calls: active = growth percent below 10; inactive = the rest.
Answer with one of the outcomes given here: active, inactive

>>> df
                            compound_smiles  label_class
0          CCN(CC)CCCCCCNc1cccc2cc(Br)cnc12     inactive
1                   CCCSc1nc(N)nc2nc[nH]c12     inactive
2                         CC(C)CCNCC(C)(C)O     inactive
3  CC1=CC[C@@H]2C(C)(C)C(=O)CC[C@@]2(C)[C@@H]1COc1ccc2ccc(=O)oc2c1     inactive
4  CCCC[C@@H](C=O)NC(=O)[C@H](CC(C)C)NC(=O)[C@H](CC(C)C)NC(=O)OCc1ccccc1       active

input: Assay result, entry `CC1=CC[C@@H]2C(C)(C)[C@@H](O)CC[C@@]2(C)[C@@H]1COc1ccc2ccc(=O)oc2c1` — outcome?
output: inactive

input: Again, but for `COCCCNc1nc(NC(=O)c2cc(OC)cc(OC)c2)cc(-c2cccnc2)n1`
output: inactive

input: // next record `Ic1ccc2[nH]cc(SSc3c[nH]c4ccc(I)cc34)c2c1`
output: active

input: Lookup `COC(=O)c1cc(O)c2c(c1C(=O)OC)C[C@H]1[C@@H]3CC=C4C[C@@H](O)CC[C@]4(C)[C@H]3CC[C@]21C`
output: inactive

input: Same read-out for `COc1cc(Cl)cc(-c2nn(C(=O)NS(=O)(=O)c3ccccc3)cc2-c2ccncc2)c1` ?
output: inactive

----------
Test system: HCC-2998 colon
Assay: NCI-60 one-dose screen, 48 h
Settings: 10 µM unless noted
Description: Growth inhibition of the HCC-2998 human tumor cell line is measured as a screen for anti-cancer activity. Cells are grown in 96 well plates and exposed to the test compound for 48 hours. Compounds are tested at a single concentration, which is 10^-5 M for most compounds. The reported endpoint is percent growth (GI% or GIPRCNT), where numbers from 0 - 100% represent growth inhibition, and numbers from -100% - 0 represent cell death. For example, a value of 40 represents 60% growth inhibition. […]
The panel holds about 83,000 compounds, 20% with a hit somewhere; the sample as a whole holds those more often. The source made the active and inactive calls. How the source made its calls: active means growth percent below 10; inactive means the rest.
Respond using exactly one of the listed classes: active, inactive

Here are 3 molecules together with their reported answers.
In [3]: df
Out[3]:
                            compound_smiles  label_class
0    CCN(CC)c1ccc(/C=C/C=C2\NC(=O)NC2=O)cc1     inactive
1   COc1ncnc2c(-c3ccccc3)cn(COCc3ccccc3)c12     inactive
2  O=C(N[C@@H]1CCCc2ccccc21)[C@H](CCC(=O)N1CCN(C2CCCCC2)CC1)N1C(=O)[C@@H](N2C(=O)OC[C@@H]2c2ccccc2)[C@H]1/C=C/c1ccccc1     inactive

input: Could you check what this test reported for `CCOC(=O)/C(C#N)=C(\C)CCc1ccccc1` ?
output: active

input: Let us now turn to `COc1cc(C)cc2oc3oc(=O)c(-c4nc5ccccc5s4)cc3c(=O)c12`
output: inactive

input: Another molecule to look at: `COc1cc(NCc2cn(-c3ccc(C(=O)O)cc3)nc2-c2ccc(C(=O)O)cc2)cc(OC)c1OC`
output: inactive

input: Another molecule: `Nc1nc(Nc2ccccc2)c2ncn(Cc3ccc4c(c3)OCO4)c2n1`
output: inactive

input: And what about the molecule `C=C(C)[C@@H]1CC[C@]2(C(=O)O)CC[C@]3(C)[C@H](CC[C@@H]4[C@@]5(C)C/C(=C/c6ccco6)C(=O)C(C)(C)[C@@H]5CC[C@]43C)[C@@H]12` ?
output: active

input: And the next one, `O=C1Nc2ccccc2/C1=C/C(=O)c1ccc(N2CCCCC2)cc1` ?
output: inactive
